# Tested on: PIK3CD (Human)
# Assay notes: Assessment of PIK3CD Kinase Activity (Scintillation Proximity Assay)
Metric name: IC50

compound="CCOc1c(C(C)n2nc(C3CC3)c3c(N)ncnc32)cc(Cl)c(C)c1-c1ccc(C(=O)N(C)C)nc1 (stereo not drawn)" metric_name=IC50 reported_result="≤ 10 nM"
compound="COc1c(C(C)n2nc(C)c3c(N)ncnc32)cc(Cl)c(C)c1C1CN(CC(N)=O)C1 (stereo not drawn)" metric_name=IC50 reported_result="≤ 10 nM"
compound="COc1c(C(C)n2nc(C)c3c(N)ncnc32)cc(Cl)c(C#N)c1C1CN(C)C1 (stereo not drawn)" metric_name=IC50 reported_result="≤ 10 nM"

Just for reference, the Kinase Knowledgebase extract (Sharma et al. 2016) is where these values come from.
